Reported % binding of analyte mAb is given for each of the following binders.
Target: T1, Recombinant human PSGL-1(ECD)-hFc1 (R&D Systems, Cat. 3345-PS) (human, UniProt Q14242 42-305)
T1 construct: Bought; Gln42-Val295 counted on AAC50061; also called PSGL-1-Fc; PSGL-1-hFc1 chimera; not shown: human IgG1 Fc, Pro100-Lys330
T1 sequence: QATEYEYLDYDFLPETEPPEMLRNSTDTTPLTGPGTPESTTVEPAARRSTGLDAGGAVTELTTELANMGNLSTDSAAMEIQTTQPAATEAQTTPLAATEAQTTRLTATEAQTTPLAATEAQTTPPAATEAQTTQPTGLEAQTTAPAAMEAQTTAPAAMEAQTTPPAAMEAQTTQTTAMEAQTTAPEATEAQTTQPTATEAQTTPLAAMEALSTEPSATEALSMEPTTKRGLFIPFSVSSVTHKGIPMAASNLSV
Experiment: Octet tandem; competitor 19L04

| binder | % binding of analyte mAb, % |
| --- | --- |
| 19L04 (antibody, IgG4, V domains shown, From mouse immunisation; only variable domains given) VH: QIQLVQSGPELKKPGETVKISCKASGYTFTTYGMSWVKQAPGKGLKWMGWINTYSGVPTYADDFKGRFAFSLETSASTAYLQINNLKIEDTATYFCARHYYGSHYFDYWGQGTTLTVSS VL: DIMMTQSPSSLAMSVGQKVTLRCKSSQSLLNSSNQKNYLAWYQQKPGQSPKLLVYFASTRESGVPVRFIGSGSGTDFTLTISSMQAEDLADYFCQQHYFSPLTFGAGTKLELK | 35.9 |
| 18F17 (antibody, V domains shown, Non-functional anti-PSGL-1 mAb (Verseau); only variable domains given) VH: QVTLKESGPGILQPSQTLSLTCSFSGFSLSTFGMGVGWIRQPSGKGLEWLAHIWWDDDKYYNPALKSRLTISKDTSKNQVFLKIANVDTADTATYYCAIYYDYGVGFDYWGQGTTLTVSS VL: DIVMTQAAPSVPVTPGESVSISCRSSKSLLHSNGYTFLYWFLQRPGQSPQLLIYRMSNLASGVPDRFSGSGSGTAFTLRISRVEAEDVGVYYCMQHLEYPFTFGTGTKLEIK | 68.7 |
| 19N05 (antibody, V domains shown, From mouse immunisation; only variable domains given) VH: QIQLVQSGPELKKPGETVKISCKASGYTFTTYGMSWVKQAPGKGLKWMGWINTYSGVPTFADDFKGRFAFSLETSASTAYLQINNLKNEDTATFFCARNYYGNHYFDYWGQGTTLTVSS VL: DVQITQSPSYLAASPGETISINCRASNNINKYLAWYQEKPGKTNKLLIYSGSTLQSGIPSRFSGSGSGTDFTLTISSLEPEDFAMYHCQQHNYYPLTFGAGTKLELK | 39.4 |
| 15A7 (antibody, V domains shown, Control mAb, recombinant; also called h15A7; 15A17) VH: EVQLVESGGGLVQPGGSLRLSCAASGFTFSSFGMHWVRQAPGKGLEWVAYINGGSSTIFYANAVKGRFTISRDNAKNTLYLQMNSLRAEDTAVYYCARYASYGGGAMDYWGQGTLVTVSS VL: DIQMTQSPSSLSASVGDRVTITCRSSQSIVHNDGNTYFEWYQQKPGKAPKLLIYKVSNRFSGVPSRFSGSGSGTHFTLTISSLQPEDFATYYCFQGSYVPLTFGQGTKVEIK | 48 |

Measured values drawn from patent US20220396632A1 for this set.
